System: Hs-578T
Assay: NCI tumour cell line growth inhibition, 48 h
The source made the active and inactive calls. No stated cut-off is given here; in the data, active = GI50 up to about 1.1 µM and inactive = higher.
Items are presented alongside their recorded GI50.
Endpoint name: GI50

{"Compound": "CCC(/C=C/c1ccccc1)=N\\Nc1ccc(Cl)c(Cl)c1", "Experimental value": "55.3 µM (inactive)"}
{"Compound": "O=C1N=C(SC2OC(CO)C(O)C(O)C2O)S/C1=C\\c1ccccc1 (configuration not stated)", "Experimental value": "> 100 µM (inactive)"}
{"Compound": "CNc1nc(OC)c2c(n1)n(C)c[n+]2C [HETEROMINE B]", "Experimental value": "31.6 µM (inactive)"}
{"Compound": "Cc1cccc(NC(=S)N/N=C(/c2ccccc2)c2ccccn2)c1", "Experimental value": "9.02 µM (inactive)"}
{"Compound": "O=C(O)CCc1ccc2c(c1)CC1(Cc3ccccc3C1)C2", "Experimental value": "> 100 µM (inactive)"}
{"Compound": "CN(CCNC(=O)c1nn(-c2ccccc2)c2c1ccc1ccccc12)CCNC(=O)c1nn(-c2ccccc2)c2c1ccc1ccccc12", "Experimental value": "2.14 µM (inactive)"}
{"Compound": "C/C(=N\\NC(=S)N1CCOCC1)c1nc2cccnc2[nH]1", "Experimental value": "39.2 µM (inactive)"}
{"Compound": "COc1ccc(C(=O)N(C(=O)N2CCN(c3ccccc3)CC2)S(=O)(=O)c2ccccc2)cc1", "Experimental value": "25.1 µM (inactive)"}
{"Compound": "Cc1ccc(OC2CC(n3cnc4c(=O)[nH]c(Br)nc43)OC2Oc2ccc(C)cc2)cc1 (configuration not stated)", "Experimental value": "24.5 µM (inactive)"}
{"Compound": "CO/N=C(\\C)c1ccc(Nc2nc3ccccc3c3occc23)cc1", "Experimental value": "12.5 µM (inactive)"}
{"Compound": "Cc1cc(/N=N/c2ccccc2C)ccc1N", "Experimental value": "15.7 µM (inactive)"}
{"Compound": "CCCCN(Cc1ccccc1)/C(=N/C#N)N(Cc1ccccc1)Cc1ccccc1", "Experimental value": "23.4 µM (inactive)"}

====

System: SK-MEL-28
Test: NCI tumour cell line growth inhibition, 48 h
Calls of active or inactive are those of the source. No stated cut-off is given here; in the data, active = GI50 up to about 1.1 µM and inactive = higher.
Labels: 1.0 for active, 0.0 for inactive

{"Compound": "CC1(C)C2CCC1(C)C(NC(=O)COCCOCC(N)=O)C2 (stereo unspecified)", "Assigned class": 0.0}
{"Compound": "CC[C@]12C=CCN3CCC4(c5cc(/N=N/c6ccc([N+](=O)[O-])cc6)c(OC)cc5N(C)[C@H]4[C@@](O)(C(=O)OC)[C@@H]1OC(C)=O)[C@@H]32 (stereo partly specified)", "Assigned class": 0.0}
{"Compound": "Cc1ccc(S(=O)(=O)NC(=O)NCC(N)=O)cc1", "Assigned class": 0.0}
{"Compound": "CN(C)c1ccc(/C=C(\\NC(=O)c2ccccc2)C2=NC(CCC(=O)O)C(=O)O2)cc1 (stereo unspecified)", "Assigned class": 0.0}
{"Compound": "COC(=O)/C=C1/OC(c2ccc(C)cc2)=C(Cl)C1=O", "Assigned class": 0.0}
{"Compound": "O=c1c(F)cn2c(=O)n1CCCCCCCn1c(=O)c(F)cn(c1=O)CCCCCCC2", "Assigned class": 0.0}
{"Compound": "CC(=O)OC12c3ccccc3-c3ccccc3C1C1C(=O)N(C)C(=O)C12Cl (stereo unspecified)", "Assigned class": 0.0}
{"Compound": "CCOC(=O)NC(=O)c1cn(CCCOC(=O)NCCCCCCNC(=O)OCCCn2cc(C(=O)NC(=O)OCC)c(=O)[nH]c2=O)c(=O)[nH]c1=O", "Assigned class": 0.0}
{"Compound": "O=C(O)C1CCC(=O)N1S(=O)(=O)c1ccccc1 (stereo unspecified)", "Assigned class": 0.0}
{"Compound": "COc1ccccc1NC(=S)N/N=C(/c1ccccc1)c1ccccn1", "Assigned class": 0.0}
{"Compound": "Cc1ccc([S+]([O-])c2cccs2)cc1 (stereo unspecified)", "Assigned class": 0.0}
{"Compound": "CN(C)CC/C(=N\\Nc1ccc(Cl)cc1Cl)c1ccccc1", "Assigned class": 0.0}
{"Compound": "COc1ccc2c(c1)c(=O)c1c(NCCN(C)C)ccc3c(=O)n(CCN(C)C)c(=O)n2c31", "Assigned class": 1.0}
{"Compound": "O=C(Nc1cnc(O)nc1O)C(Cl)Cl", "Assigned class": 0.0}
{"Compound": "CC(=O)Oc1ccc2c(c1)CC[C@@H]1C2[C@@H](O[N+](=O)[O-])C[C@@]2(C)C1CC[C@@H]2O[N+](=O)[O-] (stereo partly specified)", "Assigned class": 0.0}
{"Compound": "COc1ccc2c(=O)c3c([nH]c2c1)OCC3=O", "Assigned class": 0.0}
{"Compound": "CCCCCCOc1ccc(C(=O)NOC)cc1", "Assigned class": 0.0}
{"Compound": "COc1ccc(/C=C2/N/C(=N\\N=C/C(O)C(O)C(O)C(O)CO)NC2=O)cc1 (stereo unspecified)", "Assigned class": 0.0}
{"Compound": "[N-]=[N+]=C1C(=O)c2ccccc2-c2ccccc21", "Assigned class": 0.0}
{"Compound": "C[C@H](N)C(=O)Nc1ccc(-c2nc3ccccc3s2)cc1Cl", "Assigned class": 0.0}
{"Compound": "CNc1ncccc1Nc1cc(=O)n2c3cccnc3n(C)c2c1", "Assigned class": 0.0}

Entry source: ChEMBL document CHEMBL1201862
